Where these numbers come from: ChEMBL document CHEMBL1201862

# Test system: MDA-MB-435
# Run description: NCI tumour cell line growth inhibition, 48 h
The source made the active and inactive calls. Cut-off read from the data, not from the text of the source: active = GI50 up to about 1.1 µM and inactive = higher.
A correct response names exactly one class from active, inactive

Reference set, count: 5
INSERT INTO measurements (molecule, qualitative_label) VALUES
  ('CCCc1cn2c(/C=N/NC(=N)N)c(-c3ccc([N+](=O)[O-])cc3)nc2s1', 'inactive'),
  ('O=C1N/C(=N\N=C\c2ccccc2)C(c2ccccc2)O1 (centres undefined)', 'inactive'),
  ('CC(C)(C)C(=O)C(C(=O)C(C)(C)C)C(=O)C(C)(C)C', 'inactive'),
  ('CC(C)(C)NC(NC(C)(C)C)=C(/C=C(/Cl)[N+](=O)[O-])[N+](=O)[O-]', 'inactive'),
  ('CC(C)C(/C=C/c1ccc(Cl)cc1)=N\NC(=S)NN', 'inactive');

In this assay, the call recorded for "COc1cc(CNc2nc3cc(C(F)(F)F)ccc3nc2-c2ccccc2)cc(OC)c1OC" was what?
inactive

Hi, do you know how CC(Cn1c2c(c3cc(O)ccc31)CCc1ccc(O)cc1-2)N(C)C (centres undefined) came out in this test?
inactive

Hi, sorry to bother you, what did the test record for CC12CC3OC(=O)C1COC14OC5(C2C1=O)C(O)(CCC1C4CC2OC24CC=CC(=O)C14C)C(=O)OC35C (centres undefined) ?
inactive

Test call, this molecule: "CCOC(=O)c1c(SCCN2CCCCC2)n(-c2ccccc2)c(=S)n(-c2ccccc2)c1=O"
inactive

Assay outcome for "CCOC(=O)NC(Nc1ncn(C(NC(=O)OCC)(C(F)(F)F)C(F)(F)F)n1)(C(F)(F)F)C(F)(F)F" : what was it?
inactive

Hi, sorry to bother you, what did the test record for C=C1C(=O)OC2/C=C(\C)CC/C=C(\C)CC(OC(=O)/C(=C/CO)CO)[C@@H]12 (some centres undefined) ?
inactive

# outcome recorded in this test, key = "O=c1[nH]c(=O)n(COCCO)cc1-c1ccccc1"
inactive

Which outcome was assigned to CC(Oc1ccccc1Cl)C(=O)NN1C(=O)CC(=O)NC1=S (centres undefined) in this test?
inactive

Status in this test for COc1ccc(CC(=O)N2CCC3(C)CC(=O)CC=C23)cc1OC (centres undefined) ?
inactive

Call for entry "Cc1ncc([N+](=O)[O-])n1CCNCCCCn1ccnc1[N+](=O)[O-]" :
inactive

// return assay outcome for COC(=O)C1=C(C(=O)OC)C(C(=O)c2ccccc2)N2N=C(c3ccc(Cl)cc3)C=CC12 (centres undefined)
inactive

Write down the call the test reported for this molecule. Item: CC(=O)OCC1OC(OCCCOP(=O)(OCCC#N)OCC2OC(n3cnc4c(N)ncnc43)C(OC(=O)c3ccccc3)C2OC(=O)c2ccccc2)C(OC(C)=O)C(OC(C)=O)C1OC(C)=O (centres undefined)
inactive

Answer briefly: the call reported for "CC(C)=CCC/C(C)=C/CC/C(C)=C/CC/C(C)=C/CC/C(C)=C\CC/C(C)=C/CC/C(C)=C/CC/C(C)=C/Cc1cc(O)ccc1O" in this assay.
active

Look up the recorded call for Fc1cc2nc3n(c2cc1F)C(c1c(F)cccc1F)SC3 (centres undefined) in this test.
inactive
